As shown below, each of these molecules has a reported GI50 value.
test system: U-251; assay: NCI tumour cell line growth inhibition, 48 h
Activity calls are given as the source filed them. Rule as the data show it: active = GI50 up to about 1.1 µM and inactive = higher.
Readout Type: GI50

INSERT INTO measurements (molecule, readout_type, obs_value) VALUES
  ('CCOC(=O)CC(=O)ON(C)C(C)=O', 'GI50', '> 100 µM (inactive)'),
  ('Cc1cccc(NC(=O)c2c(N)[n+]([O-])c3ccccc3[n+]2[O-])c1', 'GI50', '1.78 µM (inactive)'),
  ('CCOC(=O)c1cc(=O)n(C)c(=O)n1C', 'GI50', '> 100 µM (inactive)'),
  ('O=C(O)c1ccccc1Sc1ccccc1[N+](=O)[O-]', 'GI50', '> 100 µM (inactive)'),
  ('CC(C)NC(=O)OCc1c(COC(=O)NC(C)C)n(C)c2c1ccc1ccsc12', 'GI50', '8.45 µM (inactive)'),
  ('CSC1(CC(=O)N(C)C)C(=O)Nc2ccccc21 (stereo unspecified)', 'GI50', '> 100 µM (inactive)');

====

system: SK-MEL-5; assay: NCI tumour cell line growth inhibition, 48 h
Calls of active or inactive are those of the source. Rule as the data show it: active = GI50 up to about 1.1 µM and inactive = higher.
Readout Type: GI50

INSERT INTO assay_data (compound, obs_value) VALUES
  ('COc1ccc2occ(CCC(=O)O)c2c1', '> 100 µM (inactive)'),
  ('O=C(O)c1ccccc1/N=C/c1ccc(N(CCCl)CCCl)cc1', '> 100 µM (inactive)'),
  ('Cc1cc(C)c(S(=O)(=O)N2CCCN(S(=O)(=O)c3c(C)cc(C)cc3C)OCCCO2)c(C)c1', '> 100 µM (inactive)'),
  ('COc1ccc2[nH]c3c4c(cc(-c5ccccc5)c3c2c1)C(=O)N(c1ccccc1)C4=O', '12.3 µM (inactive)'),
  ('COc1ccc2c(c1)CC1c3c(ccc(OC)c3O)CC2N1C (configuration not stated)', '18.1 µM (inactive)'),
  ('OC(Cc1cnnc2ccccc12)C(Cl)(Cl)Cl (configuration not stated)', '> 10 µM (inactive)'),
  ('CC[n+]1[b-](C(C)(C)C)n(/N=C/C(C)(C)C)[b-](C(C)(C)C)[n+]1CC', '> 100 µM (inactive)'),
  ('CC1=C(CO)C(=O)OC(C(C)C2CCC3C4CC5OC56C(O)C(N5CC5)=CC(=O)C6(C)C4CCC23C)C1 (configuration not stated)', '12.8 µM (inactive)'),
  ('CCC(=O)OC1CCn2c1nc1c2C(=O)C(C)=C(NC(C)=O)C1=N (configuration not stated)', '1.29 µM (inactive)'),
  ('CCOC(=O)Cn1c(=O)ccn(COCCO)c1=O', '> 100 µM (inactive)'),
  ('Brc1ccc2[nH]c3c(C4=NCCC4)nccc3c2c1', '8.47 µM (inactive)'),
  ('Cc1ccc(S(=O)(=O)N/N=C/C(Br)=C(/Br)C(=O)O)cc1', '11.7 µM (inactive)'),
  ('N=C1OC(c2c[nH]c3ccc(OCc4ccccc4)cc23)C(O)=C1O (configuration not stated)', '> 100 µM (inactive)'),
  ('O=NC1c2cccc3cccc(c23)C1N=O (configuration not stated)', '14 µM (inactive)'),
  ('COc1c(C)c2c(c3c1c(=O)c1ccccc1n3C)C=CC(C)(C)O2', '15.3 µM (inactive)'),
  ('N#Cc1c(-c2ccc(Cl)cc2)c(C#N)c(=O)n(NS(=O)(=O)c2ccccc2)c1-c1ccccc1', '> 25 µM (inactive)'),
  ('O=C1OC(OC/C(Br)=C(\Br)COC2OC(=O)C(Cl)=C2Cl)C(Cl)=C1Cl (configuration not stated)', '8.83 µM (inactive)'),
  ('CC(=O)Nc1cc2cc(N)ccc2oc1=O', '> 100 µM (inactive)'),
  ('CCOc1cc2c(cc1OC)c[n+](C)c1c3cc(OC)c(OC)cc3ccc21', '> 50.4 µM (inactive)'),
  ('CC(=O)/C=C/CCC(=O)/C=C/C(=O)OC(CCC(=O)/C=C/C(=O)O)CC(C)=O (configuration not stated)', '> 100 µM (inactive)'),
  ('CCOC(=O)N1CCC2(CC1)C[C@](Sc1ccccc1)(C(C)=O)[C@H](C)O2', '> 100 µM (inactive)'),
  ('CN(C)C(=O)CC(C(=O)O)c1c[nH]c2ccccc12 (configuration not stated)', '> 100 µM (inactive)');
